Here is a set of compounds with reported pIC50 for Galectin-3 (Homo sapiens, UniProt P17931), compiled from the literature.
One number for each entry, as −log10 of the molar value.

The cases that follow already have their pIC50 on record.
CO[C@@H]1[C@@H](n2cc(-c3cc(F)c(F)c(F)c3)nn2)[C@@H](O)[C@@H](CO)O[C@@H]1CC1=NOC2(CCC(F)(F)CC2)C1 :: 6.35
CO[C@@H]1[C@@H](n2cc(-c3cc(F)c(F)c(F)c3)nn2)[C@@H](O)[C@@H](CO)O[C@@H]1Cc1cc(C2(O)CCNCC2)on1 :: 6.64
CO[C@@H]1[C@@H](n2cc(-c3ccc(Cl)c(Cl)c3)nn2)[C@@H](O)[C@@H](CO)O[C@H]1C(=O)N(c1cc(Cl)cc(C#N)c1)[C@H]1CCCC[C@@H]1O :: 7.77

For every item in the list below, what is its measured pIC50?
1. CCOC(=O)C1CCC(O)(c2cc(C[C@H]3O[C@H](CO)[C@H](O)[C@H](n4cc(-c5cc(F)c(F)c(F)c5)nn4)[C@H]3O)no2)CC1 (stereo partly drawn)
2. CO[C@@H]1[C@@H](n2cc(-c3cc(F)cc(Cl)c3)nn2)[C@@H](O)[C@@H](CO)O[C@@H]1Cc1cc(C2CCN(S(C)(=O)=O)CC2)on1
3. OC[C@H]1O[C@H](CC2CC(C3CCCCC3)=NO2)[C@H](O)[C@@H](n2cc(-c3cc(F)c(F)c(F)c3)nn2)[C@H]1O (stereo partly drawn)
4. CO[C@@H]1[C@@H](n2cc(-c3cc(F)c(C)c(F)c3)nn2)[C@@H](O)[C@@H](CO)O[C@@H]1Cc1cc(C2CCN(C(C)=O)CC2)on1
5. CC(=O)O[C@@H]1[C@@H](n2cc(-c3cc(F)c(F)c(F)c3)nn2)[C@@H](O)[C@@H](CO)O[C@@H]1CC1CC(C2CCN(C(=O)OC(C)(C)C)CC2)=NO1 (stereo partly drawn)
6. CO[C@@H]1[C@@H](n2cc(-c3cc(F)c(F)c(F)c3)nn2)[C@@H](O)[C@@H](CO)O[C@H]1C(=O)N(c1cc(F)cc(F)c1)[C@H]1CCCC[C@@H]1O
7. CO[C@@H]1[C@@H](n2cc(-c3cc(F)c(Cl)c(Cl)c3)nn2)[C@@H](O)[C@@H](CO)O[C@H]1C(=O)N(c1ccc(F)c(F)c1)[C@H]1CCCC[C@@H]1O

# output
[6.00, 7.11, 6.32, 7.47, 7.19, 7.42, 7.19]

For every item in the list below, what is its measured pIC50?
1. CO[C@@H]1[C@@H](n2cc(-c3cc(F)cc(Cl)c3)nn2)[C@@H](O)[C@@H](CO)O[C@H]1C(=O)N(c1ccc(F)c(F)c1)[C@H]1CCCC[C@@H]1O
2. CCOC(=O)N1CCC(c2cc(C[C@H]3O[C@H](CO)[C@H](O)[C@H](n4cc(-c5ccc(Cl)c(F)c5F)nn4)[C@H]3OC)no2)CC1
3. CO[C@@H]1[C@@H](n2cc(-c3cc(F)cc(Br)c3)nn2)[C@@H](O)[C@@H](CO)O[C@H]1C(=O)N(c1cc(Br)cc(C#N)c1)[C@@H]1CCC[C@H]1O
4. Cc1ncsc1C1CC(C[C@H]2O[C@H](CO)[C@H](O)[C@H](n3cc(-c4cc(F)c(F)c(F)c4)nn3)[C@H]2O)=NO1 (stereo partly drawn)
5. CCOC(=O)N1CCC(c2cc(C[C@H]3O[C@H](CO)[C@H](O)[C@H](n4cc(-c5cc(F)c(Cl)c(F)c5)nn4)[C@H]3OC)no2)CC1

# output
1: 7.20; 2: 7.59; 3: 6.29; 4: 6.36; 5: 7.28

* * *

Here is a set of compounds with reported IC50 for Galectin-3 (Homo sapiens), compiled from the literature.
Class definitions on IC50: group 1: < 70 nM; group 2: ≥ 70 nM and < 100 nM; group 3: ≥ 100 nM

Cc1c(F)cc(-c2cn([C@H]3[C@@H](O)[C@@H](CO)O[C@@H](C(=O)N(c4cc(Cl)cc(C#N)c4)[C@H]4CCC[C@@H]4O)[C@@H]3O)nn2)cc1F :: group 1
CC(=O)N1CCC([C@H]2CC(C[C@H]3O[C@H](CO)[C@H](O)[C@H](n4cc(-c5cc(F)c(F)c(F)c5)nn4)[C@H]3O)=NO2)CC1 :: group 3
CO[C@@H]1[C@@H](n2cc(-c3cc(F)c(F)c(F)c3)nn2)[C@@H](O)[C@@H](CO)O[C@@H]1CN1CC2(CCN(C(=O)OC(C)(C)C)CC2)OC1=O :: group 3
CO[C@@H]1[C@@H](n2cc(-c3cc(F)c(Cl)c(F)c3)nn2)[C@@H](O)[C@@H](CO)O[C@@H]1Cc1cc(C2CCN(S(C)(=O)=O)CC2)on1 :: group 1
CO[C@@H]1[C@@H](n2cc(-c3cc(F)c(F)c(F)c3)nn2)[C@@H](O)[C@@H](CO)O[C@@H]1Cc1cn(C2CCS(=O)(=O)CC2)nn1 :: group 1
CO[C@@H]1[C@@H](n2cc(-c3cc(F)c(F)c(F)c3)nn2)[C@@H](O)[C@@H](CO)O[C@@H]1Cn1cc(C2CCN(S(=O)(=O)C(C)C)CC2)nn1 :: group 1
CNC(=O)[C@@H](OCc1ccc(Br)cc1)[C@@H]1OC(CO)[C@H](O)C(n2cc(-c3cc(F)c(F)c(F)c3)nn2)C1OC (stereo partly shown) :: group 3
CO[C@@H]1[C@@H](n2cc(-c3ccc(C)c(F)c3F)nn2)[C@@H](O)[C@@H](CO)O[C@@H]1Cc1cc(C(C)(C)O)on1 :: group 2

# input Entry "CO[C@@H]1[C@@H](n2cc(-c3cccc(F)c3F)nn2)[C@@H](O)[C@@H](CO)O[C@@H]1Cc1cc(C(C)(C)C)on1" belongs to which category?
# output group 3

# input Entry "CO[C@@H]1[C@@H](n2cc(-c3ccc(F)c(F)c3F)nn2)[C@@H](O)[C@@H](CO)O[C@@H]1Cc1cn(C(C)(C)C)nn1" belongs to which category?
# output group 1

# input Entry "CO[C@@H]1[C@@H](n2cc(-c3cc(F)c(F)c(F)c3)nn2)[C@@H](O)[C@@H](CO)O[C@@H]1Cc1cn(C2CCOCC2)nn1" belongs to which category?
# output group 2

# input Entry "CO[C@@H]1[C@@H](n2cc(-c3cc(F)c(F)c(F)c3)nn2)[C@@H](O)[C@@H](CO)O[C@@H]1Cc1cc(C(C)(C)O)no1" belongs to which category?
# output group 3

# input Entry "CO[C@@H]1[C@@H](n2cc(-c3cc(F)c(F)c(F)c3)nn2)[C@@H](O)[C@@H](CO)O[C@H]1C(=O)N(c1ccc2nc(C)[nH]c2c1)[C@H]1CCCC[C@@H]1O" belongs to which category?
# output group 2

# input Entry "O=C([C@@H]1O[C@H](CO)[C@H](O)[C@H](n2cc(-c3cc(F)c(F)c(F)c3)nn2)[C@H]1O)N(Cc1cnc(N2CCOCC2)s1)[C@H]1CCCC[C@@H]1O" belongs to which category?
# output group 3

# input Entry CO[C@@H]1[C@@H](n2cc(-c3ccc(C)c(F)c3F)nn2)[C@@H](O)[C@@H](CO)O[C@@H]1Cc1cc(C(C)(CO)CCl)no1 (stereo partly shown) belongs to which category?
# output group 1

* * *

Here is a set of compounds with reported IC50 for Galectin-3 (Homo sapiens, UniProt P17931), compiled from the literature.
Numbers only, in nM.

For every item in the list below, what is its measured IC50?
1. CO[C@@H]1[C@@H](n2cc(-c3cc(F)c(F)c(F)c3)nn2)[C@@H](O)[C@@H](CO)O[C@H]1C(=O)N(c1cccc(I)c1)[C@@H]1CCC[C@H]1O
2. CO[C@@H]1[C@@H](n2cc(-c3ccc(F)c(F)c3F)nn2)[C@@H](O)[C@@H](CO)O[C@@H]1CC1=NO[C@]2(CC[C@H](NC(C)=O)CC2)C1
3. CO[C@@H]1[C@@H](n2cc(-c3cc(F)c(F)c(F)c3)nn2)[C@@H](O)[C@@H](CO)O[C@H]1C(=O)N(c1cc(Cl)ccc1F)[C@H]1CCCC[C@@H]1O
4. CO[C@@H]1[C@@H](n2cc(-c3ccc(Cl)c(F)c3F)nn2)[C@@H](O)[C@@H](CO)O[C@@H]1CC1=NOC2(CCC(C#N)CC2)C1 (stereo partly shown)
5. CO[C@@H]1[C@@H](n2cc(-c3ccc(Br)c(F)c3F)nn2)[C@@H](O)[C@@H](CO)O[C@H]1C(=O)N(c1cc(F)cc(C#N)c1)[C@H]1CC[C@@H]1O
6. CC(=O)O[C@@H]1[C@@H](n2cc(-c3cc(F)c(F)c(F)c3)nn2)[C@@H](O)[C@@H](CO)O[C@@H]1CC1=NOC(C2CCN(C(C)=O)CC2)C1 (mixture of isomers)
7. CC(C)(C)OC(=O)N1CCC(c2cc(C[C@H]3O[C@H](CO)[C@H](O)[C@H](n4cc(-c5cc(F)c(F)c(F)c5)nn4)[C@H]3OCC(=O)O)no2)CC1
8. CO[C@@H]1[C@@H](n2cc(-c3ccc(C)c(F)c3F)nn2)[C@@H](O)[C@@H](CO)O[C@@H]1CN1CC2(CCCCC2)N=C1C

# output
[261, 52, 14, 110, 48, 230, 22, 74]

For every item in the list below, what is its measured IC50?
1. CO[C@@H]1[C@@H](n2cc(-c3cc(F)c(C)c(F)c3)nn2)[C@@H](O)[C@@H](CO)O[C@@H]1Cc1cc(C(C)(C)C)on1
2. CC(C)OC(=O)[C@@H](OCc1ccc(Br)cc1)[C@@H]1OC(CO)[C@H](O)C(n2cc(-c3cc(F)c(F)c(F)c3)nn2)C1O (stereo partly shown)

# output
[180, 173]

For every item in the list below, what is its measured IC50?
1. CC(C)C(=O)O[C@@H]1[C@@H](n2cc(-c3cc(F)c(F)c(F)c3)nn2)[C@@H](O)[C@@H](CO)O[C@@H]1Cc1cc(C2CCN(C(=O)OC(C)(C)C)CC2)on1
2. CO[C@@H]1[C@@H](n2cc(-c3ccc(Br)c(F)c3F)nn2)[C@@H](O)[C@@H](CO)O[C@H]1C(=O)N(c1cc(Cl)cc(C#N)c1)[C@H]1CCC[C@@H]1O

# output
1: 200; 2: 21.7

# input May I ask what IC50 has been recorded for "CO[C@@H]1[C@@H](n2cc(-c3cc(F)c(F)c(Cl)c3)nn2)[C@@H](O)[C@@H](CO)O[C@@H]1Cc1cc(C2CCN(C(C)=O)CC2)on1" ?
# output 23
